B1: glmS ribozyme (parent)
chain: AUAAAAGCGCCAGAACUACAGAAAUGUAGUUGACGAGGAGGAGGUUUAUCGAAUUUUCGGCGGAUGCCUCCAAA

Variants of: B1
protocol summary: self-cleavage kobs at 40 uM GlcN6P; higher = faster cleavage; RNA array
experimental setup: with glucosamine-6-phosphate
Fewer inactive variants are shown than the library holds.
For each entry below, report its self-cleavage kobs at 40 uM GlcN6P value.

variant identifier	self-cleavage kobs at 40 uM GlcN6P
A12G G13C A33U G63U	< 1e-05 s⁻¹
C50G G62U C68G	0.000123 s⁻¹
G9U A36U	< 1e-05 s⁻¹

// for each variant in input: emit self-cleavage kobs at 40 uM GlcN6P
1. C34A A36C U45A
2. G62C G63A
3. U47G A48C
4. A14G U45C
5. A6U G32C G59A

Resp:
1: < 1e-05 s⁻¹; 2: < 1e-05 s⁻¹; 3: < 1e-05 s⁻¹; 4: 0.000196 s⁻¹; 5: < 1e-05 s⁻¹

Lab note: each variant below needs its self-cleavage kobs at 40 uM GlcN6P filled in.
1. C34U G41C G59A A64G
2. G35U G63U
3. A52G
4. U46G U47G G59A U65G

Resp:
["< 1e-05 s⁻¹", "< 1e-05 s⁻¹", "3.36e-05 s⁻¹", "< 1e-05 s⁻¹"]

Measured values drawn from the supplement of paper PMC7125110 for this set.
